Reference source: patent US20240050428A1

tested on: MOLM-13 cells; test: Cell viability assay (CellTiter-Glo) in MOLM-13 cells, alone or with gilteritinib; type: cell-based; settings: Homo sapiens, MOLM-13, 72 h, MOLM-13 cells, compound alone (without gilteritinib), three days, CellTiter-Glo; read-out: MOLM-13 IC50
pIC50: −log10 of the molar value.
This section presents compounds with their documented pIC50 values.
Readout: pIC50

C[C@@H]1CN(c2ccc3ncc(-c4cnn([C@H]5C[C@H](CCCNc6ccc7c(c6)C(=O)N(C6CCC(=O)NC6=O)C7=O)C5)c4)nc3c2)CCN1C (stereo partly drawn) [GS-581] = < 6.00
Cc1cccc(-c2cn([C@H]3C[C@H](CCCNc4ccc5c(c4)C(=O)N(C4CCC(=O)NC4=O)C5=O)C3)nc2C2CC2)n1 (stereo partly drawn) [GS-592] = 6.00 to 7.00
O=C1CCC(N2C(=O)c3ccc(NC[C@H]4C[C@H](n5cc(-c6ccc(Cl)cn6)c(C6CC6)n5)C4)cc3C2=O)C(=O)N1 (stereo partly drawn) [GS-255] = 6.00 to 7.00
